System: primary human airway basal cells (HBEC, luciferase-transduced)
experimental protocol: proliferation (luciferase bioluminescence) Z score relative to plate mean; higher = more proliferation / more cells, active = 1.96 or more
measurement parameters: donor: 1; 5 µM; library: ENZO Libraries; 4 days
Threshold rule: proliferation greater than or equal to -0.2 is class 1; below that, class 0.

>>> print(df.to_string())
                                   compound                           measured_target  label_class
0  C[C@H](NC(=O)[C@@H]1CCCN1C(=O)[C@@H]1CCCN1C(=O)[C@@H](O)[C@H](N)Cc1ccccc1)C(N)=O  primary human airway basal cells (HBEC, luciferase-transduced)      class 1
1      CN(C)c1ccc(/C=C2/C(=O)Nc3ccccc32)cc1  primary human airway basal cells (HBEC, luciferase-transduced)      class 1
2                  O=C1CCc2c(ccc3ccccc23)O1  primary human airway basal cells (HBEC, luciferase-transduced)      class 0
3             NC(=O)c1cccnc1 [Nicotinamide]  primary human airway basal cells (HBEC, luciferase-transduced)      class 1
4           O=C1Nc2ccc([N+](=O)[O-])cc2C1=O  primary human airway basal cells (HBEC, luciferase-transduced)      class 0
5      CC(C)n1cnc2c(NCc3ccccc3)nc(NCCO)nc21  primary human airway basal cells (HBEC, luciferase-transduced)      class 0
6  NC(N)=NCCC[C@H](NC(=O)[C@@H]1CCCN1C(=O)[C@H](N)Cc1ccccc1)C(=O)CCl  primary human airway basal cells (HBEC, luciferase-transduced)      class 1
7  CC(C)C[C@H](NP(=O)(O)O[C@@H]1O[C@@H](C)[C@H](O)[C@@H](O)[C@H]1O)C(=O)N[C@@H](Cc1c[nH]c2ccccc12)C(=O)O  primary human airway basal cells (HBEC, luciferase-transduced)      class 1
